- System: RPMI-8226 leukemia
- method.notes: NCI-60 one-dose screen, 48 h
- run.conditions: 10 µM unless noted
The panel holds about 83,000 compounds, 20% with a hit somewhere; the sample as a whole holds those more often. Calls of active or inactive are those of the source. Rule for the calls: active = growth percent below 10; inactive = the rest.
Lab note: assign the record to one of true (1) (active), false (0) (inactive)

// known answers, use as guide
Oc1c(CN2CCC(N3CCOCC3)CC2)cc(Cc2cc(CN3CCC(N4CCOCC4)CC3)c(O)c3ncccc23)c2cccnc12 false (0)
Cc1nc2ccccc2c(/C=C/c2ccc(F)cc2)c1C(=O)/C=C/c1ccccc1 true (1)
O=C(/C=C/c1cccc(Oc2ccccc2)c1)c1ccc(Nc2nc(Nc3ccc(F)cc3)nc(Nc3ccc(Cl)cc3)n2)cc1 false (0)

Moving on to another molecule below.
Asked: Write down the call the test reported for this molecule. Item: `COc1cc(-c2ccc(-c3ccc(C(=N)N)cc3)s2)cc(OC)c1OC`
Given back: true (1)

###

- Test system: SF-295 CNS
- method.notes: NCI-60 one-dose screen, 48 h (100 = growth as untreated, 0 = no growth, -100 = all killed)
- run.conditions: 10 µM unless noted
The panel holds about 83,000 compounds, 20% with a hit somewhere; the sample as a whole holds those more often.
endpoint.label: growth (%)
Just the number please, in %, no unit attached.

compound	assay.target	unit.spec	growth
COc1ccc(Oc2ccc(/C=C/C(=O)c3ccc(OC)c(OC)c3)cc2)cc1	SF-295 CNS	%	87
Nc1cccc(-c2ccc(COc3ccc(CC4SC(=O)NC4=O)cc3)cc2)c1 (centres undefined)	SF-295 CNS	%	63.8
O=S(Nc1ccccc1)c1ccc(Cl)cc1 (centres undefined)	SF-295 CNS	%	107

Asked: Report growth for `N#Cc1ccccc1-c1ccc(CN2C(=O)S/C(=C\c3ccc(Br)cc3)C2=O)cc1` please.
Given back: 93.1

Asked: Report growth for `CSc1ccc(N2C(=N)C(=S)N(c3ccc(C)cc3)C2=O)cc1` please.
Given back: 96.1

Asked: Report growth for `CN(C)c1ccc(CNCCO)cc1` please.
Given back: 103

Asked: Report growth for COC12C=C/C(=C(/C(=O)OCc3csc(SC)n3)C(=O)CCCCCCCCC3(OC)C=C/C(=C(/C(=O)OCc4cnc(SC)s4)C(=O)CCCCCCCC1)O3)O2 (centres undefined) please.
Given back: 14.8

Asked: Report growth for `Clc1ccc(Nc2ncc(Cc3cccc(Cl)c3Cl)s2)cc1` please.
Given back: 100

Asked: Report growth for `CSc1nc2ccc(C)cc2cc1/C=C1/C=C(c2ccccc2)NC1=O` please.
Given back: 36.7

###

Readings of growth for the listed molecules
- Tested on: T-47D breast
- method.notes: NCI-60 one-dose screen, 48 h (100 = growth as untreated, 0 = no growth, -100 = all killed)
- run.conditions: 10 µM unless noted
The panel holds about 83,000 compounds, 20% with a hit somewhere; the sample as a whole holds those more often.
Just the number please, in %, no unit attached.

Consider the reported growth for these molecules:
CN(C)CCCNC(=O)c1cncnc1Nc1ccc2c(ccn2Cc2cccc(F)c2)c1 101
CC[C@H](Nc1nc(N)nc(C)c1C#N)c1nc2cccc(CN(C)c3ncc(C(=O)NO)cn3)c2c(=O)n1-c1ccccc1 -23.1
CC1=C2CC/C(C)=C/CC[C@]3(C)O[C@H]3CC/C(C)=C/[C@H]2OC1 86
COc1ccc(/C=N/NC(=O)Cn2c(-c3ccc(S(C)(=O)=O)cc3)nc3ccccc32)cc1 102

Here's the next entry for you.
Asked: Form entry - test system: T-47D breast; read-out: growth; molecule: `N#Cc1c(-c2ccc(Cl)cc2)nc(NN=Cc2ccc[nH]2)nc1N1CCOCC1`
Given back: 64.9

###

- Test system: COLO 205 colon
- method.notes: NCI-60 one-dose screen, 48 h (100 = growth as untreated, 0 = no growth, -100 = all killed)
- run.conditions: 10 µM unless noted
Compounds without any hit were thinned out: in the full panel of roughly 83,000, 20% have a hit. Activity calls are given as the source filed them. Rule for the calls: active = growth percent below 10; inactive = the rest.
endpoint.label: growth

molecule	growth
[N-]=[N+]=NCC1OC(n2cnc3c(NC(=O)Nc4ccccc4)ncnc32)C2OC(=O)CC12 (stereo not drawn)	105% (inactive)
O=C(O)CC(C(=O)O)/C(=C\c1ccccc1)c1ccccc1 (stereo not drawn)	99.5% (inactive)
CNC(=O)c1cc(Oc2ccc3c(c2)sc2nc(-c4ccc(NC(=O)[C@@H](NC(=O)OC)C(C)C)cc4)cn23)ccn1	63.9% (inactive)
CC(C)(Sc1cc(C(C)(C)C)c(O)c(C(C)(C)C)c1)Sc1cc(C(C)(C)C)c(OC(=O)CCC(=O)O)c(C(C)(C)C)c1	55% (inactive)
Cc1cc(Cl)nc(N2CCN(CCNc3ccnc4cc(Cl)ccc34)CC2)n1	-50.1% (active)
C[C@H](c1nc2ccc(C#N)cc2[nH]1)[C@H]1CC[C@H]2[C@@H]3CCC4=CC(=O)CC[C@]4(C)[C@H]3CC[C@]12C	79.2% (inactive)
Cc1nc(N/N=C/c2cn(-c3ccccc3)nc2-c2cc3ccccc3oc2=O)sc1N=Nc1ccccc1	105% (inactive)

Here's the next entry for you.
Asked: Report growth for COc1ccc(C2[C@@H](Cl)C(=O)N2c2cc(OC)c(OC)c(OC)c2)cc1Cl (stereo partly drawn) please.
Given back: -50.2% (active)

###

- Tested on: ACHN renal
- method.notes: NCI-60 one-dose screen, 48 h (100 = growth as untreated, 0 = no growth, -100 = all killed)
- run.conditions: 10 µM unless noted
This is part of a sample that, as a whole, favours compounds with a hit. Of some 83,000 tested, about 20% had one in any assay. Calls of active or inactive are those of the source. The calls were made as follows: active = growth percent below 10; inactive = the rest.
endpoint.label: growth

Consider the reported growth for these compounds:
compound	endpoint.label	data.value
Cc1ccc(OCCOCCOCCOCCOCCOc2ccc(C)n(O)c2=S)c(=S)n1O	growth	8.16% (active)
CCCCC#Cc1c(I)n(C2OC(CO[Si](C)(C)C(C)(C)C)C3OC(C)(C)OC32)c(=O)n(C(=O)c2ccccc2)c1=O (stereo not drawn)	growth	50.6% (inactive)
CC1(C)N=C(N)N=C(N)N1c1cc(Cl)ccc1Cl	growth	-25.2% (active)
COc1ccc(C(=O)Nc2ncc(Cc3ccc(Cl)cc3)s2)cc1	growth	25.6% (inactive)
COc1nc(/C=C\Nc2ccc3c(c2)OCCOCCOCCOCCO3)nc(OC)n1	growth	99.8% (inactive)

Asked: Report growth for `COC(=O)c1ccc2cc(OC)c(OC)cc2c1` please.
Given back: 106% (inactive)

Asked: Report growth for `COc1ccc2c(c1)c(-c1nc(-c3ccc4ccccc4c3)cs1)cn2C` please.
Given back: 87.4% (inactive)

Asked: Report growth for CC(O)Cc1c[nH]c(=O)[nH]c1=O (stereo not drawn) please.
Given back: 97.9% (inactive)

Asked: Report growth for O=C1CCCC1[n+]1ccccc1 (stereo not drawn) please.
Given back: 105% (inactive)

Asked: Report growth for CC1(/C=C/c2ccc(-c3ccccc3)cc2)CCn2cnc3ncnc(c32)N1O (stereo not drawn) please.
Given back: 6.19% (active)

Asked: Report growth for `CCOc1ncc([N+](=O)[O-])c(OCC)n1` please.
Given back: 106% (inactive)

Asked: Report growth for `CNC(=O)c1cc(Oc2ccc3c(c2)sc2nc(-c4cc(C(F)(F)F)cc(C(F)(F)F)c4)cn23)ccn1` please.
Given back: 50.3% (inactive)

Asked: Report growth for COc1ccc2c(c1)CC[C@@H]1[C@@H]2CC[C@]2(C)C3C(=CC(COC(C)=O)C4C(=O)N(c5ccc(Cl)cc5)C(=O)C43)C[C@@H]12 (stereo partly drawn) please.
Given back: 95.8% (inactive)

Asked: Report growth for `N#Cc1c(-c2ccc(Br)cc2)nc2c(N=Nc3ccc(S(N)(=O)=O)cc3)c(N)nn2c1N` please.
Given back: 71.1% (inactive)

Asked: Report growth for `N[C@@H]1CCC[C@H]1NCCCCN1C(=O)c2cccc3cc([N+](=O)[O-])cc(c23)C1=O` please.
Given back: 13.3% (inactive)

Asked: Report growth for `Cn1c2ccccc2c2c3c(c4c5cc(Br)ccc5n(C)c4c21)C(=O)N(O)C3=O` please.
Given back: -23% (active)

###

Readings of growth for the listed compounds
- System: ACHN renal
- method.notes: NCI-60 one-dose screen, 48 h (100 = growth as untreated, 0 = no growth, -100 = all killed)
- run.conditions: 10 µM unless noted
Compounds without any hit were thinned out: in the full panel of roughly 83,000, 20% have a hit. Calls of active or inactive are those of the source. Rule for the calls: active = growth percent below 10; inactive = the rest.

Consider the reported growth for these compounds:
compound	assay.target	data.value
COc1ccc(N/N=C/c2cn(-c3ccc(C(=O)O)cc3)nc2-c2cc3ccccc3oc2=O)cc1	ACHN renal	28.6% (inactive)
CCN(CC)CCCNc1cc(OC)c(OC)c2cccnc12	ACHN renal	42.3% (inactive)
COc1ccc(Oc2ccc(/C=C/C(=O)c3cc4ccccc4oc3=O)cc2)cc1	ACHN renal	91.3% (inactive)
C=C1SC(=Nc2ccccc2Cl)N(C(=O)c2sc3ccccc3c2Cl)C1(C)C	ACHN renal	46.1% (inactive)
Cc1ccc2c(c1)sc1nc(-c3c[nH]c4ccccc34)c(Nc3ccccc3)n12	ACHN renal	100% (inactive)
COC12C=C/C(=C(/C(=O)OCCSc3ccnn3C)C(=O)CCCCCCCCC3(OC)C=C/C(=C(/C(=O)OCCSc4ccnn4C)C(=O)CCCCCCCC1)O3)O2	ACHN renal	4.65% (active)
O=C(Nc1ccccc1O)c1ccc(CNc2ccnc(C(F)(F)F)c2)cc1	ACHN renal	43% (inactive)
CSc1ccc2c3c(n(C[C@H](O)CO)c(=O)c2c1)-c1ccccc1C3=O	ACHN renal	-41% (active)

Asked: Report growth for `CCOC(=O)CC[C@H](NC(=O)c1ccc(N(C)Cc2cnc3nc(N)nc(N)c3n2)c2ccccc12)C(=O)OCC` please.
Given back: 25% (inactive)
